IC50 values by entry
target: HIF Prolyl hydroxylases 2 (PHD2) (Homo sapiens (Human), UniProt Q9GZT9); assay: Inhibitory effect on PHD2 by fluorescence polarization (HIF-1α / VBC complex interaction); settings: PHD2 0.5 μg/μl, FAM-HIF (556-575) 1 μM, FP readout with GST-VBC complex
Sequence (Q9GZT9 whole entry, species assumed): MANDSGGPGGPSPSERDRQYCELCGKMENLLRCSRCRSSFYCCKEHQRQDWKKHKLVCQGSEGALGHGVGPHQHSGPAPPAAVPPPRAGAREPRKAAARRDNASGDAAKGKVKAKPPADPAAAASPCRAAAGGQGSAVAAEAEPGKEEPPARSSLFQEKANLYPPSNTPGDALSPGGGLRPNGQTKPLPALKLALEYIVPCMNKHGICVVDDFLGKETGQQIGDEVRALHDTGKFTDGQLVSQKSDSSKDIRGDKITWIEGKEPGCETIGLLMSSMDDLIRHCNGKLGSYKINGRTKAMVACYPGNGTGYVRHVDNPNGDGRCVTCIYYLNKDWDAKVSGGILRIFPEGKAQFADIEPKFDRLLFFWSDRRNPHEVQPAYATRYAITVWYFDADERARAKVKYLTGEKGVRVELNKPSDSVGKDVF

{"Molecule": "Cc1ccc(Oc2cnc(C(=O)NCC(=O)O)c(O)c2)c(C)c1 [Compound 19]", "IC50, µM": 63}
{"Molecule": "O=C(O)CNC(=O)c1ncc(Oc2ccccc2)cc1O [Compound 1]", "IC50, µM": 84}
{"Molecule": "O=C(O)CNC(=O)c1ncc(Oc2ccc3ccccc3c2)cc1O [Compound 8]", "IC50, µM": 91}
{"Molecule": "O=C(O)CNC(=O)c1ncc(Oc2cccc(Cl)c2)cc1O [Compound 22]", "IC50, µM": 236}
{"Molecule": "Cc1cccc(Oc2cnc(C(=O)NCC(=O)O)c(O)c2)c1C [Compound 5]", "IC50, µM": 237}
{"Molecule": "O=C(O)CNC(=O)c1ncc(Oc2cccc(F)c2F)cc1O [Compound 9]", "IC50, µM": 15}
